For each entry below, report its z-score value.
experiment: E. coli acrAB mutant growth effects, primary screen, E. coli filamentation inducers, strain DRC39, OD650, 24 h (AID 1178); conditions: higher = more signal, called active from +8 up or from −8 down;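 also: growth measured as culture turbidity by optical density at 650 nm; test concentration not given here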
Give the value as a plain number.

Recorded z-score for "C#CCCCON=C1C[C@@H](O)[C@@H](O)[C@@H]2[C@@H]3C(=O)N(CCC(=O)OCC)C(=O)[C@@H]3CC[C@H]12" , please?
0.0851

Let us now turn to "O=C1C[C@@H](O)[C@@H](O)[C@@H]2[C@@H]3C(=O)N(Cc4ccccc4)C(=O)[C@@H]3CC[C@@H]12"
-0.7

Next entry: "CSCC[C@@H]1NC(=O)CC=C[C@@H](C)COC(=O)[C@@H](C)COC1=O"
0.422

What would you report for CC1O[C@H]2C3=C(C(=O)[C@@H]4O[C@@H]4[C@H]3O)[C@@H]1C1[C@@H](C)OC=C3[C@H](O)C4O[C@@H]4C(=NOCc4ccccc4)[C@]312 (some centres not stated) ?
0.158

Again, but for "CCN1C(=O)[C@H]2[C@H]3[C@H](O)[C@H](O)CC(=NNC(=O)OCc4ccc(OC)cc4)[C@@H]3CC[C@H]2C1=O"
-0.154

Similarly, "CO[C@H]1COC(=O)CC=C[C@H](C)[C@@H](OC)COC(=O)[C@@H](C)COC(=O)CC=C[C@@H]1C" ?
0.224

# iterate: COC(=O)[C@H](C)NC(=O)CCC1CC(OC(=O)NCCc2ccc(F)cc2)CC2(CCCC(COC(=O)NCc3cccc(C(F)(F)F)c3)O2)O1 (some centres not stated)
0.696

---

Assign composite z-score to each entry below.
molecular target: E3 ubiquitin-protein ligase XIAP (Homo sapiens); assay: XIAP binders, primary screen, biophysical, small-molecule microarray, fluorescence 635 nm (AID 1181); conditions: small-molecule microarray binding, higher = more signal;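 also: score merges 667 nm emission and signal to noise over triplicate slides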
Could you respond with only the numeric value?

Which value of composite z-score has been reported for "CO[C@H]1COC(=O)CC=C[C@@H](C)[C@H](OC)COC(=O)[C@@H]2CCCN2C(=O)CC=C[C@@H]1C" in the records?
0.196

Further, for "COC(=O)CC=C[C@@H](C)[C@@H](C=NOCC[C@@H]1C=C[C@H](OC(C)=O)[C@@H](COC(C)=O)O1)NS(=O)(=O)c1ccc(C)cc1" ?
0.0374

Same again, this time with "CC(C)(C)N1C(=O)[C@H]2[C@H]3[C@H](O)C=CC(=O)[C@@H]3CC[C@H]2C1=O"
-0.102

Another molecule to look at: "COc1cccc([C@H]2Oc3ccc(OC)cc3C(=NO[C@@H](C)c3cn([C@H](CO)Cc4ccccc4)nn3)[C@@H]2O)c1"
-0.0367

// repeat for "CC(CCN1CCc2nc(-c3ccccc3)c(-c3ccccc3)cc2C1)=NOC[C@@H](O)[C@H]1O[C@@H]2OC(C)(C)O[C@@H]2[C@H]1O" and report
0.145

Could you do the same for "Cc1ccc(S(=O)(=O)n2c3ccccc3c3nnc(C(=O)c4ccccc4)nc32)cc1" , please?
-0.256

Entry to check: "CCOC(=O)NN=C1C[C@@H](O)[C@@H](O)[C@@H]2[C@@H]3C(=O)N(Cc4ccc5c(c4)OCO5)C(=O)[C@@H]3CC[C@H]12"
-0.0294

And "O=c1n(-c2ccccc2)c(=O)n2n1CC[C@@H]1C(=NOCc3ccccc3)[C@H]3O[C@H]3[C@@H](O)[C@@H]12" ?
-0.0026

Moving on to "CO[C@H](C1CCCCC1)[C@H](C)C=CCC(=O)OCCCc1ccccc1"
-0.193

Please do the same for "CO[C@H]1COC(=O)[C@@H](C)COC(=O)[C@H](COCc2ccccc2)NC(=O)CC=C[C@H]1C" as well.
0.227

Please give the result for "C#CCCCON=C1[C@H]2CCn3c(=O)n(C)c(=O)n3[C@H]2[C@H](O)[C@@H]2O[C@H]12" too.
-0.391

Here is the next molecule: "CC(C)=CCCC(C)=CCON=C1C[C@@H](O)[C@@H](O)[C@@H]2[C@@H]3C(=O)N(Cc4ccccc4)C(=O)[C@@H]3CC[C@@H]12"
-0.121

Here is the next molecule: "COc1cccc([C@@H]2Oc3ccc(OC)cc3C(=O)[C@H]2O)c1"
-0.0773

Try this molecule too: CCOC(=O)[C@H](Cc1ccccc1)NC(=O)CCC1CC(OC(=O)NCCc2ccc(F)cc2)CC2(CCCC(COC(=O)NCc3ccccc3)O2)O1 (stereo partly specified)
-0.0525

Same for O=C1OCCC=C1C(O)CCc1ccccc1 (stereo unspecified)
-0.202

Subsequent entry: "CCOC(=O)CCN1C(=O)[C@H]2[C@H]3[C@H](O)[C@H](O)CC(=NNC(=O)OCc4ccccc4)[C@@H]3CC[C@H]2C1=O"
0.154

Check CCOC(=O)[C@H](Cc1ccccc1)NC(=O)CCC1CC(OC(=O)NCCc2ccc(F)cc2)CC2(CCCC(COC(=O)NCC3CCCCC3)O2)O1 (stereo partly specified) too.
-0.0009

Likewise for "CCc1cc2c(nc1CC)CCN(CCC(C)=NO[C@@H](C)c1cn([C@H](CO)Cc3ccccc3)nn1)C2" ?
-0.0602

Let us now turn to "C[C@@H](c1ccccc1)N1C(=O)[C@H]2[C@H]3[C@H](O)[C@H](O)CC(=O)[C@H]3CC[C@H]2C1=O"
0.0641

Further, for "CC(C)CON=C1C[C@@H](O)[C@@H](O)[C@@H]2[C@@H]3C(=O)N(c4cccc(Oc5ccccc5)c4)C(=O)[C@@H]3CC[C@@H]12" ?
0.125

Same question, "O=C(C=Cc1ccc2c(c1)OCO2)c1ccc(F)cc1" this time
-0.176

Another molecule to check: "COc1ccc(COC(=O)NN=C2C[C@@H](O)[C@@H](O)[C@@H]3[C@@H]4C(=O)N(C5CCCCC5)C(=O)[C@@H]4CC[C@H]23)cc1"
-0.267

Then what about the molecule CCOC(=O)[C@H](Cc1ccccc1)NC(=O)CCC1CC(OC(=O)NCCc2ccc(F)cc2)CC2(CCCC(COC(=O)NCCc3ccc(Cl)cc3)O2)O1 (stereo partly specified) ?
-0.0177

Could you do the same for "CCOC(=O)NN=C1C[C@@H](O)[C@@H](O)[C@@H]2[C@@H]3C(=O)N(c4cccc(Oc5ccccc5)c4)C(=O)[C@@H]3CC[C@@H]12" , please?
-0.122

Repeat for the following molecule: "COc1cccc([C@H]2Oc3ccc(OC)cc3C(=NO[C@@H]3O[C@H](COC(C)=O)[C@@H](OC(C)=O)[C@H](OC(C)=O)[C@H]3OC(C)=O)[C@@H]2O)c1"
0.02

Can you handle "CON=C[C@@H](C)[C@H](OCc1ccccc1)C(C)C" next?
-0.409

And what about the molecule "Cc1cc2c(c(=O)o1)[C@@H](O)[C@H]1O[C@H]1C2=O" ?
0.13

Query Cc1cc2c(nc1C)CCCCN2CC(C)ON=C1[C@H]2CCn3c(=O)n(-c4ccccc4)c(=O)n3[C@H]2[C@H](O)[C@@H]2O[C@H]12 (stereo partly specified) next
-0.327

Subsequent entry: "CCN1C(=O)[C@H]2[C@H]3[C@H](O)[C@H](O)CC(=NOC[C@H]4O[C@H](c5ccccc5)C=C[C@@H]4Oc4ccc(OC)cc4)[C@@H]3CC[C@H]2C1=O"
0.0617

// repeat for "C[C@@H]1CC[C@H]2C(=O)O[C@@H](COc3ccc(C(C)(C)C)cc3)CN2[C@@H]1c1ccc(Br)cc1" and report
0.072

Now the same for "COCOc1ccc(Br)cc1C(=O)[C@@H]1O[C@H]1c1cccc(OC)c1"
0.184

---

molecular target: Calmodulin-1 (Homo sapiens) (UniProt P0DP23); test: calcium-bound CALM1 binders on microarrays, profiling panel, artefact control for SMM control-protein annotation, biochemical, small-molecule microarray, Cy5-labelled CALM1, plus calcium (AID 1112); details: Cy5-CALM1 binding fluorescence, higher = more signal;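 also: score merges spot fluorescence with signal to noise from triplicate slides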
Give composite z-score for every item shown.
Please state the value as a number alone, without comment.

For the molecule "O=C1[C@H]2[C@H]3[C@H](O)[C@H](O)CC(=NOCc4ccccc4)[C@@H]3CC[C@H]2C(=O)N1c1ccc(F)cc1F" , what composite z-score is on record?
-0.57

Then this molecule: "COc1ccc(O[C@H]2C=C[C@@H](c3ccccc3)O[C@@H]2COC(=O)CCC(C)=NO[C@@H]2O[C@H](COC(C)=O)[C@@H](OC(C)=O)[C@H](OC(C)=O)[C@H]2OC(C)=O)cc1"
-0.643

Please give the result for "CC(C)CON=C1C[C@@H](O)[C@@H](O)[C@@H]2[C@@H]3C(=O)N(C4CCCCC4)C(=O)[C@@H]3CC[C@H]12" too.
-0.0361

Another molecule: "COC(=O)[C@@H]1CC[C@H](C)[C@@H](c2ccc(C)cc2)N1C(=O)c1ccc(C=NO[C@@H](C)c2cn([C@H](CO)Cc3ccccc3)nn2)cc1"
-0.388
